- protocolSummary: Solubility in commonly used solvents for oral administration
- Format: physicochemical
- conditions: Labrasol ALF, oil or lipid
readoutName: solubility

Prompt line: Check the records and state solubility for O=C(/C=C/c1ccccc1Cl)Nc1ccc(S(=O)(=O)N2CCCCC2)cc1
Response line: 6.08 mg/mL

Prompt line: Check the records and state solubility for O=C(/C=C/c1ccccc1Br)Nc1ccc(S(=O)(=O)N2CCCCC2)cc1
Response line: 11.8 mg/mL

----------
- Tested on: S. aureus FPR3757
- protocolSummary: IM032 staphyloxanthin production inhibition
- Type: cell-based
- conditions: Staphylococcus aureus, MRSA / USA300, Table 8; USA300 (FPR-3757), CA-MRSA
readoutName: pIC50
In textbook form, pIC50 equals minus log to base ten of the concentration in mol/L.

Prompt line: Check the records and state pIC50 for O=C(/C=C/c1ccccc1Br)Nc1ccc(S(=O)(=O)N2CCCCC2)cc1
Response line: 7.51
